Target: HLA-B*35:01
Assay: IEDB peptide-MHC binding, purified MHC/competitive/radioactivity; bounds were set here for any values at or beyond the usual limits of such assays
Settings: source organism: Bordetella pertussis
Overview of recorded pIC50 for various sequences
Here pIC50 is given on a logarithmic scale as minus log10 of the concentration in mol/L.

Previously resolved entries follow.
INSERT INTO measurements (residues, recordedvalue) VALUES
  ('AAESTFESY', 4.35),
  ('HAEHEKDVR', 4.16),
  ('KAAKSVNLM', 4.30);

Look up and report measured pIC50 (HLA-B*35:01) for the following sequence: LPTHLYKNF
4.98

====

Target: HLA-B*53:01
Test: IEDB peptide-MHC binding, purified MHC/competitive/radioactivity; bounds were set here for any values at or beyond the usual limits of such assays
Conditions: source organism: Bordetella pertussis
observable: IC50 (µM)
Kindly provide the numeric value in µM only, without the unit symbol.

Previously resolved entries follow.
INSERT INTO assay_data (residues, systemtested, scaleunit, recordedvalue) VALUES
  ('PAPTAPPMP', 'HLA-B*53:01', 'µM', 53.4),
  ('DASGQHRLW', 'HLA-B*53:01', 'µM', 25.6),
  ('YPALRAALI', 'HLA-B*53:01', 'µM', 9.5);

Look up and report measured IC50 (HLA-B*53:01) for the following sequence: KPLADIAVI
15.7

====

Overview of recorded pIC50 for various sequences
Molecular target: HLA-B*44:03
Experiment: IEDB peptide-MHC binding, purified MHC/competitive/radioactivity; bounds were set here for any values at or beyond the usual limits of such assays
Conditions: source organism: Bordetella pertussis
Here pIC50 is given on a logarithmic scale as minus log10 of the concentration in mol/L.

Previously resolved entries follow.
INSERT INTO measurements (residues, systemtested, observable, recordedvalue) VALUES
  ('VEVSSPPPV', 'HLA-B*44:03', 'pIC50', 4.54),
  ('AESSEAMAA', 'HLA-B*44:03', 'pIC50', 5.12),
  ('AEATQLVTA', 'HLA-B*44:03', 'pIC50', 5.66);

Next sequence, pIC50 to be filled in.
Look up and report measured pIC50 (HLA-B*44:03) for the following sequence: IETGGARRF
4.66
